Value source: patent US11306078B2

Overview of recorded pIC50 for various compounds
Target: human chemokine receptor CXCR7 (Homo sapiens (Human))
Assay: Tango CXCR7-bla U2OS beta-arrestin recruitment assay (beta-lactamase reporter, FRET), antagonism of CXCL12/SDF1-α
Type: cell-based
Conditions: antagonistic effect on CXCR7; Tango CXCR7-bla U2OS cells, CXCL12/SDF1-α at its EC80
pIC50: −log10 of the molar value.
measured_metric: pIC50

>>> quantitative_result("C[C@@H](NC(=O)[C@@H]1CN(C2CCCC2)CC[C@H]1NC(=O)c1cc(-c2ccc(F)cc2F)no1)c1ccccn1 (relative stereo) [Example 1.126]")
7.31
>>> quantitative_result("C[C@@H](NC(=O)[C@@H]1CN(C2CCCCC2)CC[C@H]1NC(=O)c1cn(-c2ccc(F)cc2F)nn1)C1CCC1 (relative stereo) [Example 1.134]")
6.58
>>> quantitative_result("CC(NC(=O)[C@@H]1CN(C2CCCCC2)CC[C@H]1NC(=O)c1cc(-c2ccc(F)cc2F)on1)c1ncc(F)cc1F (relative stereo) [Example 1.086]")
6.81

====

Molecular target: human chemokine receptor CXCR7 (Homo sapiens (Human), UniProt P25106)
Sequence (P25106 whole entry): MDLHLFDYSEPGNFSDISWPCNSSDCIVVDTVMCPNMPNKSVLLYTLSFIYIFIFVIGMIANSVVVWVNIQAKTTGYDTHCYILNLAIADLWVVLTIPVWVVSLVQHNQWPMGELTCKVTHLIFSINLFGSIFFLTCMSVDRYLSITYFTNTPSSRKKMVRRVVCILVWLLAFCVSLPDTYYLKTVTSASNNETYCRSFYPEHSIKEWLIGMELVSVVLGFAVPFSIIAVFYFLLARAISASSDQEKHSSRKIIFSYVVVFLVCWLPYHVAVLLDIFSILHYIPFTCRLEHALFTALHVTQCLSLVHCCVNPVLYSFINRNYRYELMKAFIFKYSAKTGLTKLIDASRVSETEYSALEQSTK
Experiment: Tango CXCR7-bla U2OS beta-arrestin recruitment assay (beta-lactamase reporter, FRET), antagonism of CXCL12/SDF1-α
Assay type: cell-based
Settings: antagonistic effect on CXCR7; Tango CXCR7-bla U2OS cells, CXCL12/SDF1-α at its EC80
Sorting guide: entries reporting IC50 beneath 0.1 µM go in the 1 pile, the rest go in the 0 pile.

>>> assigned_category("C[C@@H]1CCC[C@H]1N1CC[C@@H](NC(=O)c2cn(-c3ccc(F)cc3F)nn2)[C@H](C(=O)N[C@H](C)C2CCC2)C1 (relative stereo) [Example 1.137]")
0
>>> assigned_category("CC(C)(CS(C)(=O)=O)NC(=O)[C@@H]1CN(C2CCCCC2)CC[C@H]1NC(=O)c1cc(-c2ccc(F)cc2F)on1 (racemic) [Example 1.081]")
0
>>> assigned_category("C[C@@H]1CC[C@H]1N1CC[C@@H](NC(=O)c2cc(-c3ccc(F)cc3F)on2)[C@H](C(=O)N(C)C)C1 [Example 2.016a]")
1
>>> assigned_category("O=C(N[C@@H]1CCN(C2CCCCC2)C[C@H]1C(=O)NCCc1ccc(F)cc1)c1cc(-c2ccc(F)cc2F)on1 (racemic) [Example 1.059]")
0
>>> assigned_category("C[C@@H]1CCC[C@H]1N1CC[C@@H](NC(=O)c2cc(-c3c(F)cc(F)cc3F)on2)[C@H](C(=O)NC2(c3ccccn3)CC2)C1 (relative stereo) [Example 1.172]")
1
>>> assigned_category("O=C(N[C@@H]1CCN(C2CCCCC2)C[C@H]1C(=O)N1CCC1)c1cn(-c2ccc(F)cc2F)nn1 (racemic) [Example 1.104]")
0
>>> assigned_category("CC(C)N1CC[C@H](NC(=O)c2ncc(-c3ccc(F)cc3F)o2)[C@@H](C(=O)NC2(c3ncccn3)CC2)C1 [Example 2.099]")
0
>>> assigned_category("C[C@H]([C@@H](C)O)N1CC[C@@H](NC(=O)c2cc(-c3ccc(F)cc3F)on2)[C@H](C(=O)N(C)CCc2ccccc2)C1 [Example 2.051]")
1
>>> assigned_category("O=C(N[C@@H]1CCN(CC2CC2)C[C@H]1C(=O)NC1(c2ccccn2)CC1)c1cc(-c2c(F)cc(F)cc2F)on1 (single isomer, unassigned) [Example 1.171a]")
1
>>> assigned_category("COCC(C)(C)NC(=O)[C@@H]1CN([C@@H]2CCC[C@H]2C)CC[C@H]1NC(=O)c1cc(-c2c(F)cc(F)cc2F)on1 (relative stereo) [Example 1.114]")
0
>>> assigned_category("CC1(NC(=O)[C@@H]2CN(C3CCCCC3)CC[C@H]2NC(=O)c2cc(-c3ccc(F)cc3F)on2)CCC1 [Example 4.016]")
0
>>> assigned_category("O=C(N[C@H]1CCN(CC2CC2)C[C@@H]1C(=O)NC1(c2ccncc2)CC1)c1cc(-c2ccc(F)cc2F)on1 [Example 4.027]")
1

====

Molecular target: human chemokine receptor CXCR7 (Homo sapiens (Human), UniProt P25106)
Test: Tango CXCR7-bla U2OS beta-arrestin recruitment assay (beta-lactamase reporter, FRET), antagonism of CXCL12/SDF1-α;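 also: compounds preincubated 15 min before CXCL12 addition, then 22 h at 37 °C, FRET emission ratio read with CCF4-AM substrate after 2 h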
Type: cell-based
Settings: antagonistic effect on CXCR7; Tango CXCR7-bla U2OS cells, CXCL12/SDF1-α at its EC80
Overview of recorded IC50 for various compounds
measured_metric: IC50 (nM)

>>> quantitative_result("O=C(N[C@@H]1CCN(CC2CC2)C[C@H]1C(=O)NC1(c2ncccn2)CC1)c1cc(-c2ccc(C(F)(F)F)cc2)on1 (racemic) [Example 1.192]")
389
>>> quantitative_result("CN(C)C(=O)[C@@H]1CN(C2CCCC2)CC[C@H]1NC(=O)c1cn(-c2ccc(F)cc2F)nn1 (racemic)")
667
>>> quantitative_result("CCOC(=O)C1(NC(=O)[C@H]2CN(CC3CC3)CC[C@@H]2NC(=O)c2cc(-c3ccc(F)cc3F)on2)CC1")
64
>>> quantitative_result("O=C(N[C@@H]1CCN(C2CCCCC2)C[C@H]1C(=O)N1CC(F)C1)c1cc(-c2ccc(F)cc2F)on1 (racemic)")
693
>>> quantitative_result("CC(C)(C)NC(=O)[C@@H]1CN(C2CCCCC2)CC[C@H]1NC(=O)c1cc(-c2ccc(F)cc2F)on1")
783
>>> quantitative_result("C[C@@H](NC(=O)[C@H]1CN(C2CCC2)CC[C@@H]1NC(=O)c1cc(-c2ccc(F)cc2F)on1)c1ncccn1 [Example 4.084]")
232
>>> quantitative_result("CC(NC(=O)[C@H]1CN(CC2CC2)CC[C@@H]1NC(=O)c1cc(-c2ccc(F)cc2F)on1)c1ccn[nH]1 (some centres unmarked)")
69
>>> quantitative_result("COC(=O)C1CN(C2CCCCC2)CCC1NC(=O)c1noc(-c2ccc(F)c(F)c2)n1 (centres unmarked) [BB 1.18c]")
119
>>> quantitative_result("CN(C)C(=O)[C@@H]1CN(CC2(C)CCC2)CC[C@H]1NC(=O)c1cc(-c2ccc(F)cc2F)on1")
121
>>> quantitative_result("O=C(N[C@@H]1CCN(C2CCC2)C[C@H]1C(=O)NC1(Cc2ccccc2)COC1)c1cc(-c2ccc(F)cc2F)on1")
61
>>> quantitative_result("N#CCN1CC[C@H](NC(=O)c2cc(-c3ccc(F)cc3F)on2)[C@@H](C(=O)NC2(c3ncccn3)CC2)C1")
356
>>> quantitative_result("O=C(N[C@@H]1CCN(C2CCC2)C[C@H]1C(=O)NCC1(c2ccccn2)CC1)c1cc(-c2ccc(F)cc2F)on1")
165
>>> quantitative_result("CN(CCc1ccccc1)C(=O)[C@@H]1CNCC[C@H]1NC(=O)c1cc(-c2ccc(F)cc2F)on1")
347
>>> quantitative_result("O=C(N[C@@H]1CCN(C2CCCCC2)C[C@H]1C(=O)NCCc1ccccc1Cl)c1cc(-c2ccc(F)cc2F)on1 (racemic)")
1
>>> quantitative_result("O=C(N[C@H]1CCN(CC2CC2)C[C@@H]1C(=O)NC1(c2ncccn2)CC1)c1nnc(-c2ccc(F)cc2F)s1")
2
>>> quantitative_result("O=C(N[C@H]1CCN(Cc2ccccc2)C[C@@H]1C(=O)NC1(c2ncccn2)CC1)c1cc(-c2ccc(F)cc2F)on1")
8
>>> quantitative_result("O=C(N[C@@H]1CCN(C2CCCCC2)C[C@H]1C(=O)NC1(c2ccccn2)CC1)c1cc(-c2ccccc2F)on1 (racemic)")
286
>>> quantitative_result("Cc1cc(C)nc(C2(NC(=O)[C@H]3CN(C4CCCC4)CC[C@@H]3NC(=O)c3cc(-c4ccc(F)cc4F)on3)CC2)n1")
3
>>> quantitative_result("C=CCN1CC[C@H](NC(=O)c2cc(-c3ccc(F)cc3F)on2)[C@@H](C(=O)NC2(c3ncccn3)CC2)C1")
26
>>> quantitative_result("O=C(N[C@H]1CCN(CC2CC2)C[C@@H]1C(=O)NCCc1ccccc1Cl)c1cc(-c2ccc(F)cc2F)on1")
14
>>> quantitative_result("O=C(N[C@H]1CCN(C2CCC2)C[C@@H]1C(=O)NC1(c2ncccc2F)CC1)c1cc(-c2ccc(F)cc2F)on1")
20
>>> quantitative_result("CN(C)C(=O)[C@@H]1CN([C@@H]2CCCC[C@H]2O)CC[C@H]1NC(=O)c1cc(-c2ccc(F)cc2F)on1")
501
>>> quantitative_result("CC1(NC(=O)[C@H]2CN(C3CCCCC3)CC[C@@H]2NC(=O)c2cc(-c3ccc(F)cc3F)on2)CC1")
133
>>> quantitative_result("COCC(C)(C)NC(=O)[C@@H]1CN(C2CCCCC2)CC[C@H]1NC(=O)c1cc(-c2c(F)cc(F)cc2F)on1 (single isomer, unassigned) [Example 1.111b]")
114
>>> quantitative_result("CC(NC(=O)[C@@H]1CN(C2CCCCC2)CC[C@H]1NC(=O)c1cc(-c2ccc(F)cc2F)on1)C(F)F (relative stereo)")
443
>>> quantitative_result("C[C@@H]1CCC[C@H]1N1CC[C@@H](NC(=O)c2cc(-c3c(F)cc(F)cc3F)on2)[C@H](C(=O)N(C)C)C1 (relative stereo)")
45
